ASSAY EXPLANATION: Cytotoxicity against human HepG2 cells after 4 hrs by Alamar Blue assay
Assay type: cell-based
CONDITION: read-out: LD50
RESULT TYPE: CC50 at 4 h

In: I would be grateful if you could share the reported CC50 at 4 h for `COc1cc(OC)c(/C=C/S(=O)(=O)Nc2ccc(OC)c(N)c2)c(OC)c1` .
Out: > 1000 µM

---

pIC50 values, listed per item
Test system: K562
ASSAY EXPLANATION: Cytotoxicity against human K562 cells after 96 hrs by trypan blue exclusion assay
Assay type: functional, cell-based
CONDITION: K562, 96 h
Schema: pIC50 number; meaning minus log10 of the concentration expressed in molar units.

In: # query: pIC50 of entry COC(=O)C(Nc1cc(NS(=O)(=O)/C=C/c2c(OC)cc(OC)cc2OC)ccc1OC)c1ccc(Br)cc1 (centres undefined)
Out: 6.00
